EXPERIMENT: Conversion (release) of prodrug salts to parent compound in HEPES buffer pH 7.4
Format: in vitro ADME
CONDITION PARAMETERS: hepes buffer, pH 7.4, HEPES pH 7.4, 37 °C, 2 h; read-out: Release rate (conversion to Compound 83)
Description: Pharmaceutically acceptable salts of guaiane-type sesquiterpene lactone derivatives were selected and evaluated for their conversion rates to Compound 1 and Compound 83 in plasma and HEPES buffer, with results shown in Tables 2-1, 2-2, 3-1, and 3-2. Experimental Method: Preparation of HEPES 7.4 Solution: Dissolve 1.6 g NaCl, 0.074 g KCl, 0.027 g Na2HPO4, 0.2 g glucose, and 1 g 4-(2-Hydroxyethyl)piperazine-1-ethanesulfonic acid (HEPES) solution in 90 mL distilled water. […]

# SMILES ENTRY, SCALE UNIT, degraded at 2 h
measured = [
    ("CC1=C2CC[C@@](C)(OC(=O)N3CCCCC3)[C@@H]2[C@H]2OC(=O)[C@@H](CN(C)C)[C@@H]2CC1", "%", 14.6),
    ("CC1=C2CC[C@@](C)(OC(=O)N3CCCCC3)[C@@H]2[C@H]2OC(=O)[C@@H](CN3CCCC3)[C@@H]2CC1", "%", 14),
]
